Assay: Pharmacokinetics of evocalcet after oral administration to male rats
Conditions: Sprague-Dawley, rat, in vivo, po, 0.3 mg/kg, t1/2
VALUE_TYPE: half-life

Report half-life for C[C@@H](N[C@H]1CCN(c2ccc(CC(=O)O)cc2)C1)c1cccc2ccccc12 please.
5.77 h

---

Assay: Pharmacokinetics of evocalcet after oral administration to male rats
Details: rat, in vivo, po, 0.3 mg/kg, tmax
VALUE_TYPE: Tmax
Write your answer as a measured quantity: the number, then the unit.

Item under review: C[C@@H](N[C@H]1CCN(c2ccc(CC(=O)O)cc2)C1)c1cccc2ccccc12 [evocalcet] . Reported Tmax?
15 min

---

Molecular target: CYP1A2 (Homo sapiens, UniProt P05177)
Sequence (P05177 whole entry): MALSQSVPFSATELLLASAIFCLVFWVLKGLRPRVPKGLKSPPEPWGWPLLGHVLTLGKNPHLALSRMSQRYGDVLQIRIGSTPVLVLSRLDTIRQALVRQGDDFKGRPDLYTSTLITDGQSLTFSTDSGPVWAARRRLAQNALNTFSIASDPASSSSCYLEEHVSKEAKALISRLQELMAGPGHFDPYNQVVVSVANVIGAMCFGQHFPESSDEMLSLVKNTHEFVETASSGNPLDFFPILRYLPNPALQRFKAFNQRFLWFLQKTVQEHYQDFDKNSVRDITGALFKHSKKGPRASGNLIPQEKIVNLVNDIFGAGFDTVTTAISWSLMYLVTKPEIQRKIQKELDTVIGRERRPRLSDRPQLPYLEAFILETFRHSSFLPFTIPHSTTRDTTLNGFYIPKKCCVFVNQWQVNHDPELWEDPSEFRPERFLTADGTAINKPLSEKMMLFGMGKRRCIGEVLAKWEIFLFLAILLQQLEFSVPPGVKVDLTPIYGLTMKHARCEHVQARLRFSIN
pIC50: −log10 of the molar value.
VALUE_TYPE: pIC50

Requested read-out pIC50, target or system CYP1A2 (Homo sapiens, UniProt P05177), entry C[C@@H](N[C@H]1CCN(c2ccc(CC(=O)O)cc2)C1)c1cccc2ccccc12
< 4.30

---

Experiment: Pharmacokinetics of evocalcet after oral administration to male rats
Settings: rat, in vivo, po, 0.1 mg/kg, Cmax
VALUE_TYPE: Cmax (ng/mL)
Give the number; ng/mL is assumed, so skip it.

Name the recorded Cmax for C[C@@H](N[C@H]1CCN(c2ccc(CC(=O)O)cc2)C1)c1cccc2ccccc12 [evocalcet] .
221

From: paper PMC5882164
